Tested on: 699152-130-R-J1-PDC complex spheroid growth
protocolDescription: Anticancer human tumor 699152-130-R-J1-PDC patient-derived pancreatic carcinoma cell line growth inhibition [AhR]
experimentalSetup: second compound 10 µM; first compound 0.0316 µM; stronger effect = lower value
Decision: viability, T/C beneath 30% gives MET; viability, T/C meeting or exceeding 30% gives NOT MET.

compound="CC1(C)CCC(CN2CCN(c3ccc(C(=O)NS(=O)(=O)c4ccc(NCC5CCOCC5)c([N+](=O)[O-])c4)c(Oc4cnc5[nH]ccc5c4)c3)CC2)=C(c2ccc(Cl)cc2)C1 + Cc1cncc(-c2nc(NCCc3c[nH]c4ccccc34)c3ncn(C(C)C)c3n2)c1" targetundertest="699152-130-R-J1-PDC complex spheroid growth" discretelabel=MET
compound="Cn1ncnc1C1c2n[nH]c(=O)c3cc(F)cc(c23)NC1c1ccc(F)cc1 (configuration not stated) + Cc1ccccc1N=Nc1ccc(NC(=O)c2ccnn2C)c(C)c1" targetundertest="699152-130-R-J1-PDC complex spheroid growth" discretelabel="NOT MET"
compound="COc1cc(Nc2ncc3c(n2)-c2ccc(Cl)cc2C(c2c(F)cccc2OC)=NC3)ccc1C(=O)O + Cc1cncc(-c2nc(NCCc3c[nH]c4ccccc34)c3ncn(C(C)C)c3n2)c1" targetundertest="699152-130-R-J1-PDC complex spheroid growth" discretelabel=MET
compound="O=C(C=Cc1cccc(S(=O)(=O)Nc2ccccc2)c1)NO + Cc1ccccc1N=Nc1ccc(NC(=O)c2ccnn2C)c(C)c1" targetundertest="699152-130-R-J1-PDC complex spheroid growth" discretelabel="NOT MET"
compound="CC1COCCN1c1cc(C2(S(C)(=N)=O)CC2)nc(-c2ccnc3[nH]ccc23)n1 (configuration not stated) + Cc1cncc(-c2nc(NCCc3c[nH]c4ccccc34)c3ncn(C(C)C)c3n2)c1" targetundertest="699152-130-R-J1-PDC complex spheroid growth" discretelabel=MET
compound="COc1cc(Nc2ncc3c(n2)-c2ccc(Cl)cc2C(c2c(F)cccc2OC)=NC3)ccc1C(=O)O + Cc1ccccc1N=Nc1ccc(NC(=O)c2ccnn2C)c(C)c1" targetundertest="699152-130-R-J1-PDC complex spheroid growth" discretelabel="NOT MET"
compound="CC[C@@]1(O)C(=O)OCc2c1cc1n(c2=O)Cc2cc3c(CN(C)C)c(O)ccc3nc2-1 + Cc1cncc(-c2nc(NCCc3c[nH]c4ccccc34)c3ncn(C(C)C)c3n2)c1" targetundertest="699152-130-R-J1-PDC complex spheroid growth" discretelabel=MET

###

Test system: 699152-130-R-J1-PDC complex spheroid growth
protocolDescription: Anticancer human tumor 699152-130-R-J1-PDC cell line growth inhibition [AhR];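 further: compound exposure lasted 7 days after spheroids had grown for 3 days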
experimentalSetup: curve of first compound; second compound 10 µM
pIC50: −log10 of the molar value.
Recorded measurements of pIC50, one per entry
valueKind: pIC50

molecule="CC1COCCN1c1cc(-c2ccnn2C)c2ccnc(-c3ccn[nH]3)c2n1 (configuration not stated) + Cc1cncc(-c2nc(NCCc3c[nH]c4ccccc34)c3ncn(C(C)C)c3n2)c1" valuekind=pIC50 result="> 8.50"
molecule="O=C(C=Cc1cccc(S(=O)(=O)Nc2ccccc2)c1)NO + Cc1ccccc1N=Nc1ccc(NC(=O)c2ccnn2C)c(C)c1" valuekind=pIC50 result="< 5.00"
molecule="Nc1ccccc1NC(=O)c1ccc(CNC(=O)OCc2cccnc2)cc1 + Cc1ccccc1N=Nc1ccc(NC(=O)c2ccnn2C)c(C)c1" valuekind=pIC50 result="< 5.00"
molecule="Nc1ncn(C2CC(O)C(CO)S2)c(=O)n1 (configuration not stated) + CC(CO)NC(=O)c1cc(-c2ccc(Cl)cc2)nn(-c2cnn(C)c2)c1=O" valuekind=pIC50 result="< 6.52"
molecule="COc1cc(Nc2ncc3c(n2)-c2ccc(Cl)cc2C(c2c(F)cccc2OC)=NC3)ccc1C(=O)O + Cc1cncc(-c2nc(NCCc3c[nH]c4ccccc34)c3ncn(C(C)C)c3n2)c1" valuekind=pIC50 result="> 7.50"
molecule="Nc1ncn(C2CC(O)C(CO)O2)c(=O)n1 (configuration not stated) + Cc1cncc(-c2nc(NCCc3c[nH]c4ccccc34)c3ncn(C(C)C)c3n2)c1" valuekind=pIC50 result="> 8.50"
molecule="CC(C)CC(NC(=O)C(Cc1ccccc1)NC(=O)c1cnccn1)B(O)O (configuration not stated) + Cc1ccccc1N=Nc1ccc(NC(=O)c2ccnn2C)c(C)c1" valuekind=pIC50 result=7.77

###

Test system: 699152-130-R-J1-PDC complex spheroid growth
protocolDescription: Anticancer human tumor 699152-130-R-J1-PDC cell line growth inhibition [AhR];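 further: compound exposure lasted 7 days after spheroids had grown for 3 days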
experimentalSetup: second compound 1 µM; first compound 0.0316 µM; stronger effect = lower value
I'd appreciate it if you marked entries fulfilled when viability, T/C is lower than 80% and not fulfilled when it is not.

molecule="CC1(C)CCC(CN2CCN(c3ccc(C(=O)NS(=O)(=O)c4ccc(NCC5CCOCC5)c([N+](=O)[O-])c4)c(Oc4cnc5[nH]ccc5c4)c3)CC2)=C(c2ccc(Cl)cc2)C1 + Cc1ccccc1N=Nc1ccc(NC(=O)c2ccnn2C)c(C)c1" discretelabel="not fulfilled"
molecule="COc1cc(C2c3cc4c(cc3C(OC3OC5COC(C)OC5C(O)C3O)C3COC(=O)C23)OCO4)cc(OC)c1O (stereo unspecified) + Cc1cncc(-c2nc(NCCc3c[nH]c4ccccc34)c3ncn(C(C)C)c3n2)c1" discretelabel="not fulfilled"
molecule="CC[C@@]1(O)C(=O)OCc2c1cc1n(c2=O)Cc2cc3c(CN(C)C)c(O)ccc3nc2-1 + CC(CO)NC(=O)c1cc(-c2ccc(Cl)cc2)nn(-c2cnn(C)c2)c1=O" discretelabel="not fulfilled"
molecule="Nc1ccn(C2OC(CO)C(O)C2(F)F)c(=O)n1 (stereo unspecified) + Cc1ccccc1N=Nc1ccc(NC(=O)c2ccnn2C)c(C)c1" discretelabel=fulfilled
molecule="CC(C)c1c(-c2ccccc2)nc2c(C#N)c[nH]n2c1=O + Cc1ccccc1N=Nc1ccc(NC(=O)c2ccnn2C)c(C)c1" discretelabel="not fulfilled"
molecule="Cn1ncnc1C1c2n[nH]c(=O)c3cc(F)cc(c23)NC1c1ccc(F)cc1 (stereo unspecified) + Cc1ccccc1N=Nc1ccc(NC(=O)c2ccnn2C)c(C)c1" discretelabel="not fulfilled"

###

Test system: 699152-130-R-J1-PDC complex spheroid growth
protocolDescription: Anticancer human tumor 699152-130-R-J1-PDC cell line growth inhibition [AhR];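 further: compound exposure lasted 7 days after spheroids had grown for 3 days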
experimentalSetup: second compound 3.16 µM; first compound 0.316 µM; stronger effect = lower value
Measured viability, T/C, listed per entry.
valueKind: viability, T/C (%)

compound="CC1(C)CCC(CN2CCN(c3ccc(C(=O)NS(=O)(=O)c4ccc(NCC5CCOCC5)c([N+](=O)[O-])c4)c(Oc4cnc5[nH]ccc5c4)c3)CC2)=C(c2ccc(Cl)cc2)C1 + Cc1cncc(-c2nc(NCCc3c[nH]c4ccccc34)c3ncn(C(C)C)c3n2)c1" numericvalue=130
compound="Nc1ccccc1NC(=O)c1ccc(CNC(=O)OCc2cccnc2)cc1 + Cc1cncc(-c2nc(NCCc3c[nH]c4ccccc34)c3ncn(C(C)C)c3n2)c1" numericvalue=70.3
compound="CC1(C)CCC(CN2CCN(c3ccc(C(=O)NS(=O)(=O)c4ccc(NCC5CCOCC5)c([N+](=O)[O-])c4)c(Oc4cnc5[nH]ccc5c4)c3)CC2)=C(c2ccc(Cl)cc2)C1 + CC(CO)NC(=O)c1cc(-c2ccc(Cl)cc2)nn(-c2cnn(C)c2)c1=O" numericvalue=102
compound="O=C(C=Cc1cccc(S(=O)(=O)Nc2ccccc2)c1)NO + Cc1cncc(-c2nc(NCCc3c[nH]c4ccccc34)c3ncn(C(C)C)c3n2)c1" numericvalue=109
compound="CC(C)c1c(-c2ccccc2)nc2c(C#N)c[nH]n2c1=O + Cc1ccccc1N=Nc1ccc(NC(=O)c2ccnn2C)c(C)c1" numericvalue=103
compound="COc1cc(C2c3cc4c(cc3C(OC3OC5COC(C)OC5C(O)C3O)C3COC(=O)C23)OCO4)cc(OC)c1O (stereo unspecified) + Cc1cncc(-c2nc(NCCc3c[nH]c4ccccc34)c3ncn(C(C)C)c3n2)c1" numericvalue=70.1
compound="CC1(C)CCC(CN2CCN(c3ccc(C(=O)NS(=O)(=O)c4ccc(NCC5CCOCC5)c([N+](=O)[O-])c4)c(Oc4cnc5[nH]ccc5c4)c3)CC2)=C(c2ccc(Cl)cc2)C1 + Cc1ccccc1N=Nc1ccc(NC(=O)c2ccnn2C)c(C)c1" numericvalue=118
compound="COc1cc(Nc2ncc3c(n2)-c2ccc(Cl)cc2C(c2c(F)cccc2OC)=NC3)ccc1C(=O)O + Cc1ccccc1N=Nc1ccc(NC(=O)c2ccnn2C)c(C)c1" numericvalue=68.9
compound="O=C(C=Cc1cccc(S(=O)(=O)Nc2ccccc2)c1)NO + Cc1ccccc1N=Nc1ccc(NC(=O)c2ccnn2C)c(C)c1" numericvalue=107
compound="Nc1ncn(C2CC(O)C(CO)O2)c(=O)n1 (stereo unspecified) + Cc1ccccc1N=Nc1ccc(NC(=O)c2ccnn2C)c(C)c1" numericvalue=104
compound="COc1ccc([C@@H](O)c2cc(-c3ncnc4cc(N5CCOCC5)ccc34)c(F)cc2Cl)nn1 + Cc1cncc(-c2nc(NCCc3c[nH]c4ccccc34)c3ncn(C(C)C)c3n2)c1" numericvalue=60.6
